What activity coefficient was measured for each of the following?
- procedure_summary: activity coefficient (dimensionless); of the first substance listed, at infinite dilution; xn = mol fraction of the nth substance listed
- assay_setup: 348.15 K; 101 kPa; Liquid; Chromatography; x1 = 0
Simply state the number, no unit and no words.

Report activity coefficient for CO [methanol] + NCCCCCCCCCCN please.
0.634

Next compound up: c1ccccc1 [benzene] + NCCCCCCCCCCN
1.61

What about this compound? Cc1ccccc1 [toluene] + NCCCCCCCCCCN
2.23

Now the compound CCCCCCCCCC [decane] + NCCCCCCCCCCN
5.03

Same thing, different compound: CCOCC [diethyl ether] + NCCCCCCCCN
3.36

Do the same for CCCCO [butan-1-ol] + NCCCCCCCCCCN please
0.774

Try this compound next: CCc1ccccc1 [ethylbenzene] + NCCCCCCCCCCN
1.78

Repeat for the following compound: CCCCO [butan-1-ol] + NCCCCCCCCN
0.692

// query: C=CCCCCCCCC [1-decene] + NCCCCCCCCCCN
3.82

Also need CCCCCCCl [1-chlorohexane] + NCCCCCCCCCCN , thanks.
2.81

Same lookup for CCCCCCCl [1-chlorohexane] + NCCCCCCCCN , please.
2.02

Same read-out for CCCO [propan-1-ol] + NCCCCCCCCCCN ?
0.731

Also, CCOCC [diethyl ether] + NCCCCCCCCCCN please.
3.69

How about this compound: ClC(Cl)(Cl)Cl [tetrachloromethane] + NCCCCCCCCN
1.37

Next compound: C=CCCC [1-pentene] + NCCCCCCCCCCN
2.98

One more compound: CO [methanol] + NCCCCCCCCN
0.369

Queued: CCCCCCC [heptane] + NCCCCCCCCCCN
4.64

Please give the result for CCCCCCCC [octane] + NCCCCCCCCN too.
4.13

Also, C=CCCCCCC [oct-1-ene] + NCCCCCCCCCCN please.
3.65

Follow-up item: C=CCCCCC [1-heptene] + NCCCCCCCCCCN
3.1

// repeat for CCOC(C)=O [ethyl acetate] + NCCCCCCCCCCN and report
0.951

Now consider CCOC(C)=O [ethyl acetate] + NCCCCCCCCN .
0.855

Same lookup for C=CCCCCCC [oct-1-ene] + NCCCCCCCCN , please.
3

Repeat for the following compound: CCCCCCl [1-chloropentane] + NCCCCCCCCCCN
2.43

Subsequent entry: CCCO [propan-1-ol] + NCCCCCCCCN
0.614

Queued: C=CCCCC [hex-1-ene] + NCCCCCCCCCCN
3.06
